assay: Blood concentrations and pharmacokinetics after 1 mg/kg i.v. in mice; assay type: in vivo, mouse; conditions: mouse, in vivo, iv, 1 mg/kg, mouse, 0.25 h, mean of 3 mice, read-out: Blood Concentrations, Mean S.D.
MEASUREMENT_TYPE: concentration at 0.25 h (ng/mL)
Please state the figure in ng/mL; there is no need to write the unit.

Look up concentration at 0.25 h of Cc1nn(C)c2nc(NNC(=O)Nc3cc(Cl)nc(Cl)c3)cc(C(C)C)c12 [JTE013] and report it.
94.4

* * *

test: Blood concentrations and pharmacokinetics after 1 mg/kg i.v. in mice; type: in vivo, mouse; settings: mouse, in vivo, iv, 1 mg/kg, mouse blood, individual mice, read-out: C0
MEASUREMENT_TYPE: C0 (µg/mL)
Please state the figure in µg/mL; there is no need to write the unit.

Look up C0 of Cc1nn(C)c2nc(NNC(=O)Nc3cc(Cl)nc(Cl)c3)cc(C(C)C)c12 [JTE013] and report it.
0.453
